B1: SAT2 (parent)
chain: GYGIYYFIYSTWKGRTIYLEDIYV

Variants of: B1
Test: protein stability index of a GFP-peptide fusion (GPS, HEK-293T) (PSI 1-6); higher = more stable;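 further: lentivirally expressed fusions sorted by FACS into six bins by GFP to DsRed ratio, PSI derived from sequencing read proportions per bin multiplied by bin number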
Details: c terminus: a fixed tail appended
measured_attribute: protein stability index
Respond numerically, and do not add a unit to the figure.

Recorded protein stability index, per entry:
R15C ... 3.31
E20C ... 3.04
Y2H ... 3.91
W12P ... 2.36
Y18I ... 1.92
E20N ... 4.06
Y23C ... 2.65
Y9P ... 2.71
L19H ... 2.98
E20H ... 2.91

Query: Return reported protein stability index; argument: `W12N`
Reply: 3.5

Query: Could you do the same for `Y6C` , please?
Reply: 2.94

Query: Now consider `Y18T` .
Reply: 2.92

Query: Consider next the variant `T16S` in the same way.
Reply: 3.8

Query: What would you report for `T11H` ?
Reply: 3.48

Query: Record: `V24Y`
Reply: 2.53
